- testTarget: H1047R PIK3CA enzyme (Homo sapiens, UniProt P42336, H1047R)
- Sequence (P42336 whole entry H1047R): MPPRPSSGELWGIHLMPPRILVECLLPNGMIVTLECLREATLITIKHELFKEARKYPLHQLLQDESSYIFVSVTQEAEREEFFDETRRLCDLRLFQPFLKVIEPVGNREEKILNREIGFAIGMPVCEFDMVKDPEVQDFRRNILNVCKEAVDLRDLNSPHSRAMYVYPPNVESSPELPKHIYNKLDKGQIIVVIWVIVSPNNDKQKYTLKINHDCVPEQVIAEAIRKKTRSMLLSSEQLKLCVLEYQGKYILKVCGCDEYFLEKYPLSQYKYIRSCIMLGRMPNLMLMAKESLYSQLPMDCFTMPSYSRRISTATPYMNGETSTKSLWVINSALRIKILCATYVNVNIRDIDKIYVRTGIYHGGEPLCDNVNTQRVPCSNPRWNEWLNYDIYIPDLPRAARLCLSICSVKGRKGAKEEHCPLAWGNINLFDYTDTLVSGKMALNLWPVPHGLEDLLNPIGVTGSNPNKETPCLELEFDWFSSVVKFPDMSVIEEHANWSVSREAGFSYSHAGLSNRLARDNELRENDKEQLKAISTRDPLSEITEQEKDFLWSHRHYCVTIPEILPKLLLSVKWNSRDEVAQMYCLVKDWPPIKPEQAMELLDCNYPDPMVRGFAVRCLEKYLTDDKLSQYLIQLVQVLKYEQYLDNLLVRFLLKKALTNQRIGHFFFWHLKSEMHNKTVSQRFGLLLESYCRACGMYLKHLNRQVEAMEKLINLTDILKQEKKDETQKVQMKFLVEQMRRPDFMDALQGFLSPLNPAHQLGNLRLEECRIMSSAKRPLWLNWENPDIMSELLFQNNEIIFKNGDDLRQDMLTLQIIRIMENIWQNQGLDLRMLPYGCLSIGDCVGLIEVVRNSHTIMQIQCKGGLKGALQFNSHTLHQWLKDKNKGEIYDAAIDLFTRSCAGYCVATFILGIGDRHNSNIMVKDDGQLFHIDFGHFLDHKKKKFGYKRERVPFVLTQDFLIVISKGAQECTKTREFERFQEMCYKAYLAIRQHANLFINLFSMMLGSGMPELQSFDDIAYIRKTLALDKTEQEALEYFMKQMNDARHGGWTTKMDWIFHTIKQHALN
- Sequence (P27986 whole entry partner): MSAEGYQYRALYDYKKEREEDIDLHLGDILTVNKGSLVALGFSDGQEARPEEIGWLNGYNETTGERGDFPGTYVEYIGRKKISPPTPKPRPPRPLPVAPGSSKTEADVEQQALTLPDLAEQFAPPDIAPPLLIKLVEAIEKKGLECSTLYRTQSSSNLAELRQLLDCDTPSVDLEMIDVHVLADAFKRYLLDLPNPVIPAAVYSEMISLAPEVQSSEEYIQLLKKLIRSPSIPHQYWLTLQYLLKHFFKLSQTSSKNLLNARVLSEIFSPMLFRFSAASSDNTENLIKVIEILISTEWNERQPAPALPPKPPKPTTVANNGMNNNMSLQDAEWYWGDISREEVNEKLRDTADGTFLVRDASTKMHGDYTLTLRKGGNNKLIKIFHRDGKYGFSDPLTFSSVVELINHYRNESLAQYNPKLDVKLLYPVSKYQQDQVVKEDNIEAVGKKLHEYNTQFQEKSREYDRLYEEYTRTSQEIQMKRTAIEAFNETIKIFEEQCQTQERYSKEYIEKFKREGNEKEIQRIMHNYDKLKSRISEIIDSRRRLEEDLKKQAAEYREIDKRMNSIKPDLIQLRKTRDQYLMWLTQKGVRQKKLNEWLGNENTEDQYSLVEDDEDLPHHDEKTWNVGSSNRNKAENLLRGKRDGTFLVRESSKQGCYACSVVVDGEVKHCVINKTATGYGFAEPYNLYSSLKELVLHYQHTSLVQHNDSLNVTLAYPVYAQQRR
- assayDetails: ADP-Glo Biochemical PIK3CA Kinase Assay
pIC50: −log10 of the molar value.
measurementLabel: pIC50

O=C1NC(c2cc(F)ccc2Cl)c2c(NC(=O)N3CCCC3)cc(-c3ccc4ncnn4c3)cc21 (stereo not drawn) [Compound I-1720]	4.00 to 5.00
O=C1Nc2cccc(NC(=O)c3cc(F)cc(C(F)(F)F)c3)c2C(c2ccccc2Cl)N1 (stereo not drawn) [Compound I-1212]	5.00 to 6.00
O=C(Nc1cc(-c2n[nH]c3ccccc23)cc2c1C(c1cc(F)ccc1Cl)NC2=O)c1cc(F)cc(C(F)(F)F)c1 (stereo not drawn) [Compound I-937]	6.30 to 7.00

Form field pIC50 for item O=C(Nc1cc(-c2cnc(C(O)CO)nc2)cc2c1C(c1cc(F)ccc1Cl)NC2=O)c1cc(F)cc(C(F)(F)F)c1 (stereo not drawn) [Compound I-1542] on H1047R PIK3CA enzyme (Homo sapiens, UniProt P42336, H1047R): ≥ 7.00

Form field pIC50 for item Cc1ccccc1C1NC(=O)c2cccc(NC(=O)C3CCc4ccccc43)c21 (stereo not drawn) [Compound I-256] on H1047R PIK3CA enzyme (Homo sapiens, UniProt P42336, H1047R): 5.00 to 6.00

Form field pIC50 for item O=C1NC(c2cc(F)ccc2Cl)c2c(NC(=O)c3nsc4ccccc34)cc(CO)cc21 (stereo not drawn) [Compound I-154] on H1047R PIK3CA enzyme (Homo sapiens, UniProt P42336, H1047R): ≥ 7.00

Form field pIC50 for item Cc1ccccc1C1NC(=O)c2cc(Br)cc(NC(=O)c3cc(F)cc(C(F)(F)F)c3)c21 (stereo not drawn) [Compound I-54] on H1047R PIK3CA enzyme (Homo sapiens, UniProt P42336, H1047R): 6.30 to 7.00

Form field pIC50 for item O=C(Nc1cc(C2COC2)nc2c1C(c1cc(F)ccc1Cl)NC2=O)c1cc(F)cc(C(F)(F)F)c1 (stereo not drawn) [Compound I-689] on H1047R PIK3CA enzyme (Homo sapiens, UniProt P42336, H1047R): 6.30 to 7.00

====

Below, each entry is listed with its recorded pIC50.
- testTarget: H1047R PIK3CA enzyme (Homo sapiens, UniProt P42336, H1047R)
- assayDetails: ADP-Glo Biochemical PIK3CA Kinase Assay
- Method: Compounds to be assayed were plated in 16 doses of 1:2 serial dilutions (20 nL volume each well) on a 1536-well plate, and the plate warmed to room temperature. […] To the well was added 1 μL of 200 μM ATP and 20 μM of diC8-PIP2 in Substrate Assay Buffer (50 mM HEPES pH7.4, 50 mM NaCl, 5 mM DTT and 0.03% CHAPS) to start the reaction, and the plate was shaken for 10 seconds, then spun briefly at 1500 rpm, and then incubated for 60 minutes at room temperature. […]
pIC50: −log10 of the molar value.

See these solved cases before continuing.
CNS(=O)(=O)Cc1cc(NC(=O)c2cc(F)cc(C(F)(F)F)c2)c2c(c1)C(=O)N[C@H]2c1cc(F)ccc1Cl [Compound I-1534]	≥ 7.00
CS(=O)(=O)CCCOc1cc(NC(=O)c2cc(F)cc(C(F)(F)F)c2)c2c(c1)C(=O)NC2c1cc(F)ccc1Cl (stereo not shown) [Compound I-735]	6.30 to 7.00
CN1CC=C(c2cc(-c3ccc4ncnn4c3)cc3c2C(c2cc(F)ccc2Cl)NC3=O)CC1 (stereo not shown) [Compound I-2021]	4.00 to 5.00

Reported pIC50 for Cc1[nH]ncc1Nc1cc(NC(=O)c2cc(F)cc(C(F)(F)F)c2)c2c(c1)C(=O)NC2c1cc(F)ccc1Cl (stereo not shown) [Compound I-1017] was ≥ 7.00

Reported pIC50 for O=C(Nc1cccc2c1C(C1CCC1)NC2=O)c1cc(F)cc(C(F)(F)F)c1 (stereo not shown) [Compound I-1731] was 4.00 to 5.00

Reported pIC50 for O=C1N[C@H](c2cc(F)ccc2Cl)c2c(NC(=O)[C@@H]3CCCCN3)cc(-c3ccc4ncnn4c3)cc21 [Compound I-2146] was 4.00 to 5.00

Reported pIC50 for O=C1NC(c2cc(F)ccc2Cl)c2c(Nc3nccc4cc[nH]c34)cc(Br)cc21 (stereo not shown) [Compound I-1460] was 4.00 to 5.00

Recorded values, source patent US12581252B2.
